// data source = PubChem BioAssay AID1159580

Field: normalized growth. Provide a value for each of the compounds that follow.
PROTOCOL_NOTES: chemical genetic growth profiling, strain panel (AID 1159580);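 also: tested at 20 µM; growth read once vehicle control cultures reached saturation at 30 °C; 1 = growth at the plate median or of vehicle wells; lower values mean less growth of the strain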
MEASUREMENT_PARAMETERS: S. cerevisiae deletion strains, growth OD, locus YBR279W, strain paf1, stronger effect = lower value
About 2,000 (36%) of roughly 5,500 compounds were called active. Not shown: some 18% with an inconclusive outcome. The list shows a part of the results.

Determine its reported normalized growth: `NC1(C(=O)O)CC1`
1.02 (inactive)

Determine its reported normalized growth: CC(=O)Oc1c2c(c3c(c1CC=C(C)C)O[C@]14C(=C[C@@H]5CC1C(C)(C)OC4(C/C=C(\C)C(=O)O)C5=O)C3=O)OC(C)(CCC=C(C)C)C=C2 (stereo not given in full)
0.961 (inactive)

Determine its reported normalized growth: COc1ccc2nc(S(=O)Cc3ncc(C)c(OC)c3C)[nH]c2c1 (stereo not given)
0.913 (active)

Determine its reported normalized growth: `COc1ccc(-c2oc3cc(OC)c(OC)c(OC)c3c(=O)c2OC)cc1OC`
0.983 (inactive)

Determine its reported normalized growth: `COc1ccc(-c2oc3cc(OC)c(OC)c(OC)c3c(=O)c2OC)cc1`
0.982 (inactive)

* * *

PROTOCOL_NOTES: chemical genetic growth profiling, strain panel (AID 1159580);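 also: tested at 20 µM; growth read once vehicle control cultures reached saturation at 30 °C; 1 = growth at the plate median or of vehicle wells; lower values mean less growth of the strain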
MEASUREMENT_PARAMETERS: S. cerevisiae deletion strains, growth OD, locus YDR069C, strain doa4, stronger effect = lower value
The whole screen tested about 5,500 compounds, of which about 2,000 (36%) were called active. Roughly 18% stayed inconclusive and do not appear here. This is one part of the list.
MEASURED_PROPERTY: normalized growth
// no unit, no text: just the number

Determine its reported normalized growth: `Cc1nnc(NS(=O)(=O)c2ccc(N)cc2)s1`
0.992

Determine its reported normalized growth: `NCCCCC(=O)O`
1.02

Determine its reported normalized growth: CC(=O)O[C@@H]1CC2C(C)(C)C(=O)C3OC3[C@]2(C)C2CC[C@@]3(C)[C@H](c4ccoc4)OC(=O)C4OC43[C@@]21C (some centres not stated)
0.993

Determine its reported normalized growth: C=C[C@@]1(C)CC(=O)[C@@]2(O)[C@](C)(O1)[C@@H](OC(C)=O)[C@@H](O)C1C(C)(C)CC[C@H](O)[C@@]12C (some centres not stated)
0.975

Determine its reported normalized growth: CCC(C)C(=O)c1c(O)c(C)c2oc3c(C)c(O)c(C(=O)C(C)CC)c(O)c3c2c1O (configuration not stated)
0.919

Determine its reported normalized growth: Cc1cccc(C)c1NC(=O)C1CCCCN1C (configuration not stated)
1

Determine its reported normalized growth: `CC(C)c1nc(N(C)S(C)(=O)=O)nc(-c2ccc(F)cc2)c1/C=C/[C@@H](O)C[C@@H](O)CC(=O)O`
0.971

Determine its reported normalized growth: Clc1ccc(CSC(Cn2ccnc2)c2ccc(Cl)cc2Cl)cc1 (configuration not stated)
0.0624

Determine its reported normalized growth: CCCCCCCCCCCCCC(=O)OC1C(C)C2(O)C(C=C(CO)CC3(O)C(=O)C(C)=CC32)C2C(C)(C)C12OC(C)=O (configuration not stated)
0.985

Determine its reported normalized growth: `Cc1cc(/C=C/c2ccc3cc(N(C)C)ccc3[n+]2C)c(C)n1-c1ccccc1`
0.989

Determine its reported normalized growth: `Cc1oncc1C(=O)Nc1ccc(C(F)(F)F)cc1`
0.977

Determine its reported normalized growth: CC(C)=CC1C(C(=O)OCc2cccc(Oc3ccccc3)c2)C1(C)C (configuration not stated)
0.99

Determine its reported normalized growth: `COc1cc(NS(C)(=O)=O)ccc1Cc1c2ccccc2nc2ccccc12`
0.842

Determine its reported normalized growth: CC(=O)C1CC[C@H]2C3CC[C@H]4C[C@H](O)CC[C@]4(C)C3CC[C@]12C (some centres not stated)
1

Determine its reported normalized growth: Clc1ccc(COC(Cn2ccnc2)c2ccc(Cl)cc2Cl)cc1 (configuration not stated)
0.0605

Determine its reported normalized growth: `Cc1ccc(C(=O)c2ccc(CC(=O)O)n2C)cc1`
0.999

Determine its reported normalized growth: NCC[C@@H](O)C(=O)N[C@@H]1C[C@H](N)[C@@H](O[C@H]2O[C@H](CN)[C@@H](O)[C@H](O)[C@H]2O)[C@H](O)[C@H]1O[C@H]1O[C@H](CO)[C@@H](O)[C@H](N)C1O (some centres not stated)
1.03

Determine its reported normalized growth: `CN1CCC[C@@H]1CCO[C@](C)(c1ccccc1)c1ccc(Cl)cc1`
0.955

Determine its reported normalized growth: NC(=O)CS(=O)C(c1ccccc1)c1ccccc1 (configuration not stated)
1.02

Determine its reported normalized growth: CC(=O)O[C@H]1C[C@@]2(C)[C@@H](C[C@@H](O)C3[C@]2(C)CC[C@H]2[C@H](C)[C@H](O)CC[C@]32C)/C1=C(/CCC=C(C)C)C(=O)O (some centres not stated)
1.03

Determine its reported normalized growth: CC(=O)O[C@H]1C[C@@H](OC(C)=O)C(C)(C)C2C[C@@H](O)[C@]3(C)C(CC[C@@]4(C)[C@H](c5ccoc5)OC(=O)[C@H]5O[C@]543)[C@]21C (some centres not stated)
0.981

Determine its reported normalized growth: `O=C(O)CCCCCCCC(=O)O`
1

Determine its reported normalized growth: `CN(C/C=C/C#CC(C)(C)C)Cc1cccc2ccccc12`
0.567

Determine its reported normalized growth: `CCCNC(=O)NS(=O)(=O)c1ccc(Cl)cc1`
1.03

Determine its reported normalized growth: CC(=O)O[C@@H]1CC2C(C)(C)[C@H](O)C=C[C@]2(C)C2CC[C@@]3(C)[C@H](c4ccoc4)OC(=O)C4OC43[C@@]21C (some centres not stated)
1.04

Determine its reported normalized growth: CC(=O)O[C@@H]1CC2C(C)(C)[C@H](O)CC[C@]2(C)C2CC[C@@]3(C)[C@H](c4ccoc4)OC(=O)C4OC43[C@@]21C (some centres not stated)
1.04

Determine its reported normalized growth: CCN1C[C@@]2(COC)C3[C@@H](OC)[C@H]4[C@@H]1[C@]3(C(OC)C[C@H]2O)C1C[C@@]2(O)[C@H](OC(=O)c3ccccc3)C1[C@]4(OC(C)=O)[C@@H](O)[C@@H]2OC (some centres not stated)
0.985

Determine its reported normalized growth: CC(C)/C(O)=C1/C(=O)O[C@@H](c2ccoc2)[C@]2(C)C(O)[C@@H](O)[C@@]34OC5(C)OC67CC(C)(C(O)[C@]6(O)[C@@H](O)[C@]3(O5)C12)[C@H](CC(=O)O)[C@]74C (some centres not stated)
1.02

Determine its reported normalized growth: `COC(=O)[C@H](c1ccccc1Cl)N1CCc2sccc2C1`
1.01

Determine its reported normalized growth: CC12CCCCC1(Br)[N+](=O)N2[O-] (configuration not stated)
0.91

Determine its reported normalized growth: Clc1ccc(COC(Cn2ccnc2)c2ccc(Cl)cc2Cl)c(Cl)c1 (configuration not stated)
0.065

Determine its reported normalized growth: CC(=O)O[C@@H]1CC2C(C)(C)[C@@H](O)CC[C@]2(C)C2CC[C@@]3(C)[C@H](c4ccoc4)OC(=O)[C@H]4O[C@]43[C@@]21C (some centres not stated)
1.01

Determine its reported normalized growth: `COc1c(C)c2c(c(O)c1C/C=C(\C)CCC(=O)O)C(=O)OC2`
0.713

Determine its reported normalized growth: CC(=O)OCC(=O)[C@@]1(O)CCC2C3CCC4=CC(=O)C=CC4(C)C3[C@@H](O)C[C@@]21C (some centres not stated)
0.99

Determine its reported normalized growth: `Oc1c(Cl)cc(Cl)c(Cl)c1Cc1c(O)c(Cl)cc(Cl)c1Cl`
0.0643

Determine its reported normalized growth: `c1ccc2c(CC3=NCCN3)cccc2c1`
0.947

Determine its reported normalized growth: `Clc1ccccc1CN1CCc2sccc2C1`
1
